Reported values of growth inhibition for individual entries
Assay: NCI Yeast Anticancer Drug Screen. Data for the rad50 strain (AID 155);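 also: 0% = growth of vehicle-only cultures of the same strain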
Conditions: S. cerevisiae rad50 strain growth inhibition; at 50.0 µM (retest, dose inferred, filed as 5.0); hits give high values
Compounds without any hit were thinned out: in the full panel of roughly 79,000, 15% have a hit.
Please respond with the number in % and leave the unit unwritten.

Field: example entries. Status: answers known.
Identify the reported growth inhibition for the following entry. CC(=O)Oc1cccc2c(OC(C)=O)cccc12
87

Identify the reported growth inhibition for the following entry. c1ccc(CCN(Cc2nc3ccccc3[nH]2)Cc2nc3ccccc3[nH]2)cc1
90

Identify the reported growth inhibition for the following entry. Cc1cc2c(c3c1C(=O)CC3)C(C)(C)CC2(C)C
77

New cases:
Identify the reported growth inhibition for the following entry. COc1c(OC)c(C2(O)C(=O)N(C)c3ccccc32)c(OC)c(OC)c1C1(O)C(=O)N(C)c2ccccc21 (stereo unspecified)
2

Identify the reported growth inhibition for the following entry. CN(C)C(=O)/C=C/c1c[nH]c(=O)[nH]c1=O
-149

Identify the reported growth inhibition for the following entry. Cc1cc2nc3ccc(N(C)C)cc3nc2cc1N
94

====

Reported values of growth inhibition for individual entries
Experiment: NCI Yeast Anticancer Drug Screen. Data for the rad50 strain (AID 155);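 also: 0% = growth of vehicle-only cultures of the same strain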
Settings: S. cerevisiae rad50 strain growth inhibition; at 50.0 µM (retest, dose inferred, filed as 5.0); hits give high values
About 79,000 compounds went through this panel and 15% of them were active in at least one assay; those are over-represented in the sample as a whole.
Please respond with the number in % and leave the unit unwritten.

Identify the reported growth inhibition for the following entry. Cc1c2c(c(C)c3c1sc1ccccc13)CCN=C2
98

Identify the reported growth inhibition for the following entry. CC(=O)Nc1ccc(O)c(=O)cc1
96

Identify the reported growth inhibition for the following entry. CCN(CC)CCNc1c2ccccc2nc2cccc([N+](=O)[O-])c12
97

Identify the reported growth inhibition for the following entry. CCOc1ccccc1N=Nc1ccc2oc(=O)c(C(=O)Nc3cccc(C)c3)cc2c1
13

New cases:
Identify the reported growth inhibition for the following entry. O=C(OCc1ccccc1CN1CCOCC1)c1cccc(Br)c1
32

Identify the reported growth inhibition for the following entry. CSCSCC(CO)NC(=O)/C=C/c1c(C)[nH]c(=O)[nH]c1=O (stereo not given)
0

Identify the reported growth inhibition for the following entry. CC1=CC2OC3CC4OC(=O)/C=C/C=C/C(C(C)O)OCC(=O)C(C)CC(=O)OCC2(CC1)C4(C)C31CO1 (stereo not given)
98

Identify the reported growth inhibition for the following entry. CCCOC1=C(Cl)C(=O)c2cccc([N+](=O)[O-])c2C1=O
98

Identify the reported growth inhibition for the following entry. COc1ccc(Cc2c(-c3ccc(C)cc3)n[nH]c(=O)c2C2C(=O)N(c3ccccc3)N=C2c2ccccc2)cc1 (stereo not given)
95

Identify the reported growth inhibition for the following entry. CC(C)/C(Cl)=N\OC(=O)Nc1cccc(F)c1
65

====

Experiment: NCI Yeast Anticancer Drug Screen. Data for the mec2-1 strain (AID 157)
Details: S. cerevisiae mec2-1 strain, at 50.0 µM
Compounds without any hit were thinned out: in the full panel of roughly 79,000, 15% have a hit. Active and inactive are the calls of the source. Cut-off read from the data, not from the text of the source: active = growth inhibition above about 70%; inactive = the rest.
Result category, one only: YES (active), NO (inactive)

Recorded call for CCN1CC(=O)N(C)C1=S ?
YES

Recorded call for COc1ccc(CCCC(=O)O)c2c(OC)cccc12 ?
NO

Recorded call for Cc1c(-c2ccccc2)ccnc1/C=N/NS(=O)(=O)c1ccccc1 ?
NO

New cases:
Recorded call for CCCC/C=C(/CCCCOCOCCOC)[Si](C)(C)C ?
NO

Recorded call for COC(=O)c1ccc(CCc2cc(O)ccc2O)cc1 ?
YES
